Test system: 485176-168-R4-J1-PDC complex spheroid growth
Assay: Anticancer human tumor 485176-168-R4-J1-PDC patient-derived pancreatic adenocarcinoma cell line growth inhibition [RAS]
Settings: curve of first compound; second compound 10 µM

- compound: "CCN1CCN(Cc2ccc(Nc3ncc(F)c(-c4cc(F)c5nc(C)n(C(C)C)c5c4)n3)nc2)CC1 + C#Cc1c(F)ccc2cc(O)cc(-c3ncc4c(N5CC6CCC(C5)N6)nc(OCC56CCCN5CC(F)C6)nc4c3F)c12"
  target_entity: "485176-168-R4-J1-PDC complex spheroid growth"
  IC50: "> 1000 nM"
- compound: "C=CC(=O)Nc1cc(Nc2nccc(-c3cn(C)c4ccccc34)n2)c(OC)cc1N(C)CCN(C)C + C#Cc1c(F)ccc2cc(O)cc(-c3ncc4c(N5CC6CCC(C5)N6)nc(OCC56CCCN5CC(F)C6)nc4c3F)c12"
  target_entity: "485176-168-R4-J1-PDC complex spheroid growth"
  IC50: "> 1000 nM"
- compound: "C[C@@H](NC(=O)c1ncnc(N)c1Cl)c1ncc(C(=O)Nc2cc(C(F)(F)F)c(Cl)cn2)s1 + C#Cc1c(F)ccc2cc(O)cc(-c3ncc4c(N5CC6CCC(C5)N6)nc(OCC56CCCN5CC(F)C6)nc4c3F)c12"
  target_entity: "485176-168-R4-J1-PDC complex spheroid growth"
  IC50: "> 10000 nM"

----------
Tested on: 485176-168-R4-J1-PDC complex spheroid growth
Experiment: Anticancer human tumor 485176-168-R4-J1-PDC cell line growth inhibition [RAS];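 further: spheroids exposed to compounds for seven days before readout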;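 on viability, T/C: luminescence viability expressed relative to DMSO vehicle wells set as 100%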
Settings: second compound 0.03 µM; first compound 1 µM; stronger effect = lower value
Catalogue of viability, T/C readings, one per entry.

- compound: "O=C(c1ccc(F)c(F)c1Nc1ccc(I)cc1F)N1CC(O)([C@@H]2CCCCN2)C1 + CCn1c(-c2cc(N3CCN(C)CC3)cnc2C(C)OC)c2c3cc(ccc31)-c1csc(n1)CC(NC(=O)C1CC1C)C(=O)N1CCCC(N1)C(=O)OCC(C)(C)C2"
  units_text: "%"
  viability, T/C: 31.4
- compound: "NC1c2ccccc2OC12CCN(c1cnc3c(N4CCCc5ncccc54)n[nH]c3n1)CC2 (centres undefined) + CCn1c(-c2cccnc2C(C)OC)c2c3cc(ccc31)N1CCOC(CC(NC(=O)C(C(C)C)N(C)C(=O)C3(F)CCN(C(=O)C#CC(C)(C)N(C)C)CC3)C(=O)N3CCCC(N3)C(=O)OCC(C)(C)C2)C1"
  units_text: "%"
  viability, T/C: 71.3
- compound: "Nc1ccn(C2OC(CO)C(O)C2(F)F)c(=O)n1 (centres undefined) + CCn1c(-c2cc(N3CCN(C)CC3)cnc2C(C)OC)c2c3cc(ccc31)-c1csc(n1)CC(NC(=O)C1CC1C)C(=O)N1CCCC(N1)C(=O)OCC(C)(C)C2"
  units_text: "%"
  viability, T/C: 11.5
- compound: "NC1c2ccccc2OC12CCN(c1cnc3c(N4CCCc5ncccc54)n[nH]c3n1)CC2 (centres undefined) + CCn1c(-c2cc(N3CCN(C)CC3)cnc2C(C)OC)c2c3cc(ccc31)-c1csc(n1)CC(NC(=O)C1CC1C)C(=O)N1CCCC(N1)C(=O)OCC(C)(C)C2"
  units_text: "%"
  viability, T/C: 104

----------
System: 485176-168-R4-J1-PDC complex spheroid growth
Assay: Anticancer human tumor 485176-168-R4-J1-PDC cell line growth inhibition [RAS];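 further: spheroids exposed to compounds for seven days before readout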
Conditions: curve of first compound; second compound 0.03 µM

- compound: "Cc1nc(N2CCC3(CC2)COC(C)C3N)c(CO)nc1Sc1ccnc(N)c1Cl (stereo not given) + CCn1c(-c2cc(N3CCN(C)CC3)cnc2C(C)OC)c2c3cc(ccc31)-c1csc(n1)CC(NC(=O)C1CC1C)C(=O)N1CCCC(N1)C(=O)OCC(C)(C)C2"
  IC50: "> 10000 nM"
- compound: "CC(Nc1ccc2c(c1)OCCn1cc(N3C(=O)OCC3C(F)F)nc1-2)C(N)=O (stereo not given) + CCn1c(-c2cccnc2C(C)OC)c2c3cc(ccc31)N1CCOC(CC(NC(=O)C(C(C)C)N(C)C(=O)C3(F)CCN(C(=O)C#CC(C)(C)N(C)C)CC3)C(=O)N3CCCC(N3)C(=O)OCC(C)(C)C2)C1"
  IC50: "> 10000 nM"
- compound: "CC(=O)OC12COC1CC(O)C1(C)C(=O)C(O)C3=C(C)C(OC(=O)C(O)C(NC(=O)OC(C)(C)C)c4ccccc4)CC(O)(C(OC(=O)c4ccccc4)C21)C3(C)C (stereo not given) + CCn1c(-c2cc(N3CCN(C)CC3)cnc2C(C)OC)c2c3cc(ccc31)-c1csc(n1)CC(NC(=O)C1CC1C)C(=O)N1CCCC(N1)C(=O)OCC(C)(C)C2"
  IC50: "< 31.6 nM"
- compound: "C=CC(=O)N1CCN(c2nc(OCC3CCCN3C)nc3c(F)c(-c4nc(N)cc(C)c4C(F)(F)F)c(Cl)cc23)C(C)C1 (stereo not given) + CCn1c(-c2cc(N3CCN(C)CC3)cnc2C(C)OC)c2c3cc(ccc31)-c1csc(n1)CC(NC(=O)C1CC1C)C(=O)N1CCCC(N1)C(=O)OCC(C)(C)C2"
  IC50: "> 1000 nM"
- compound: "C=CC(=O)Nc1cc(Nc2nccc(-c3cn(C)c4ccccc34)n2)c(OC)cc1N(C)CCN(C)C + CCn1c(-c2cc(N3CCN(C)CC3)cnc2C(C)OC)c2c3cc(ccc31)-c1csc(n1)CC(NC(=O)C1CC1C)C(=O)N1CCCC(N1)C(=O)OCC(C)(C)C2"
  IC50: "> 1000 nM"

Entry source: PubChem BioAssay AID2060906
